Molecular target: Protein skinhead-1 (Caenorhabditis elegans, UniProt P34707)
Sequence (P34707 whole entry): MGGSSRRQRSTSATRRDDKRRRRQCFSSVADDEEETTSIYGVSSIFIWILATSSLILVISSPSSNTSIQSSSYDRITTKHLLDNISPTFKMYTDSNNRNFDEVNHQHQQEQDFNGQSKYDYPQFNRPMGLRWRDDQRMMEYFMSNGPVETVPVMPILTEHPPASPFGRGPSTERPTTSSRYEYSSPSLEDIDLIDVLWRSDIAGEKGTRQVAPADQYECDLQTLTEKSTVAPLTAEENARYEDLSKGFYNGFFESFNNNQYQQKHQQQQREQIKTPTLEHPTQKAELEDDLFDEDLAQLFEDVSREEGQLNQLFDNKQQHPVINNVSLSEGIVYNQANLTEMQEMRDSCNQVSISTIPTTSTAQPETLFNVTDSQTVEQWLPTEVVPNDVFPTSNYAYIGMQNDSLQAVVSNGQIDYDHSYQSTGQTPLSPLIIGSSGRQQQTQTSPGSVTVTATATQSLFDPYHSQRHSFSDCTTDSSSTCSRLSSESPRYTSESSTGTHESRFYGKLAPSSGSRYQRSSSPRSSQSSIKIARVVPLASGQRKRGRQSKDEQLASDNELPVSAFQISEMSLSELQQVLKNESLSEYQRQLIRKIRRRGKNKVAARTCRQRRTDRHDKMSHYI
Assay type: functional
The source made the active and inactive calls.
Possible outcomes: 1.0 = active, 0.0 = inactive

molecule	system	group.label
CC1(C(=O)NS(=O)(=O)c2cccs2)CCN1C(=O)Cc1ccc(-c2ccccc2)cc1 (centres undefined)	Protein skinhead-1 (Caenorhabditis elegans, UniProt P34707)	0.0
CC(NC(=O)c1cc(COc2ccccc2)on1)c1nccs1 (centres undefined)	Protein skinhead-1 (Caenorhabditis elegans, UniProt P34707)	0.0
COc1ccccc1NC(=O)CSc1nnc(-c2ccncc2)o1	Protein skinhead-1 (Caenorhabditis elegans, UniProt P34707)	0.0
COC(=O)c1ccc(CC2(C)C(=O)Nc3ccc(-c4cccc(C(F)(F)F)c4)cc32)o1 (centres undefined)	Protein skinhead-1 (Caenorhabditis elegans, UniProt P34707)	0.0
O=C1c2ccccc2CCc2ccc(Br)cc21	Protein skinhead-1 (Caenorhabditis elegans, UniProt P34707)	1.0
Cc1ccc(F)c(C2C3C=CCC(c4cccc(-c5ccc(N(C)C)cc5)c4)C3C(=O)N2Cc2ccccc2)c1 (centres undefined)	Protein skinhead-1 (Caenorhabditis elegans, UniProt P34707)	0.0
O=C(Nc1cccc(-c2csc(Nc3ccccc3)n2)c1)c1ccccc1	Protein skinhead-1 (Caenorhabditis elegans, UniProt P34707)	0.0
FC(F)(F)c1cc(-c2cccs2)nc(-n2cc(Br)cn2)n1	Protein skinhead-1 (Caenorhabditis elegans, UniProt P34707)	0.0
O=C(O)CCNc1cc2ccccc2cc1C(=O)O	Protein skinhead-1 (Caenorhabditis elegans, UniProt P34707)	0.0
Cn1c(S)nnc1Cc1c[nH]c2ccccc12	Protein skinhead-1 (Caenorhabditis elegans, UniProt P34707)	0.0
O=C(Nc1nccs1)c1ccc2ccccc2c1	Protein skinhead-1 (Caenorhabditis elegans, UniProt P34707)	1.0
Cc1cc2cc(CNC(=O)c3ccc(S(=O)(=O)N(C)C)cc3)ccc2n1C	Protein skinhead-1 (Caenorhabditis elegans, UniProt P34707)	0.0
CC(C)c1ccc(-c2nc3ccccc3s2)cc1	Protein skinhead-1 (Caenorhabditis elegans, UniProt P34707)	0.0
O=C(/C=C\Nc1ccc(Br)cc1)c1cccnc1	Protein skinhead-1 (Caenorhabditis elegans, UniProt P34707)	0.0

====

Biological target: Leucine aminopeptidase (Plasmodium falciparum 3D7, UniProt Q8IL11)
Sequence (Q8IL11 whole entry): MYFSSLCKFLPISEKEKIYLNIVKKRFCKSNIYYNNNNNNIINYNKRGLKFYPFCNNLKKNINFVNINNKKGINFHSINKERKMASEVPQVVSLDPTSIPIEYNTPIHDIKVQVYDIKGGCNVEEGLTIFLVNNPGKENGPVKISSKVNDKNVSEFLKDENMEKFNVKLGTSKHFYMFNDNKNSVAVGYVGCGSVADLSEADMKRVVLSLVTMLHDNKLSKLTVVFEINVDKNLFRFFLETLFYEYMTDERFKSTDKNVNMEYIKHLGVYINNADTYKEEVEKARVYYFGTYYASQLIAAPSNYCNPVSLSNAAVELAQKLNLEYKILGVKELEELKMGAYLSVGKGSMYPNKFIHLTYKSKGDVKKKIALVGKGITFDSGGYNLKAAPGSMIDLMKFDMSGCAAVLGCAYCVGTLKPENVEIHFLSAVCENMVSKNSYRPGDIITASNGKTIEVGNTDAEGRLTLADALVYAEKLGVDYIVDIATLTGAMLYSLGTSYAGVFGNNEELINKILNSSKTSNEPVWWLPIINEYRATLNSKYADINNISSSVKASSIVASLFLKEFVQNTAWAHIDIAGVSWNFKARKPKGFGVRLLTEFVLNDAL
Assay: P. falciparum M17LAP inhibitors, primary screen, biochemical, fluorogenic H-Leu-NHMec substrate, 1536-well (AID 1619)
Assay type: functional
Calls of active or inactive are those of the source.

molecule	system	IC50
Cc1oc(C(C)(C)C)cc1C(=O)NC(Cc1ccccc1)C(=O)O (stereo not drawn)	Leucine aminopeptidase (Plasmodium falciparum 3D7, UniProt Q8IL11)	12.7 µM (active)
CCOc1ccc(NC(=O)CSc2nnc(CCNC(=O)c3ccc(OC)cc3)n2CC)cc1	Leucine aminopeptidase (Plasmodium falciparum 3D7, UniProt Q8IL11)	8.71 µM (active)
Cc1cc(C)c(NC(=O)CN2C(=O)NC3(CCCCC3)C2=O)c(C)c1	Leucine aminopeptidase (Plasmodium falciparum 3D7, UniProt Q8IL11)	19.5 µM (active)

====

Observed AC50 for Cytochrome P450 3A4 (Homo sapiens), reported per entry below.

compound	AC50
CN(C)c1ccc(-c2nc(NCCN3CCOCC3)c3ccccc3n2)cc1	12.6 µM (inconclusive)
CCOc1cccc(CNCCNC(=O)c2nonc2N)c1	5.01 µM (inconclusive)
CC1(C)CC(NCc2ccc3c(c2)OCO3)CCO1 (stereo unspecified)	17.8 µM (inconclusive)
N#Cc1c2c(c(-n3cnc4ccccc43)n3c1nc1ccccc13)CCC2	3.16 µM (inconclusive)
COc1ccc(CNC(=O)CN(CC2CCCO2)C(=O)CNS(=O)(=O)c2ccccc2)cc1 (stereo unspecified)	3.98 µM (inconclusive)
Nc1nc(SCc2ccccc2)c2ncn(Cc3ccccc3)c2n1	3.98 µM (inconclusive)

Numbers sourced from ChEMBL document CHEMBL1201862.
